- Assay text: yeast display, Sf9 membrane polyspecificity reagent, FACS + sequencing; frameworks hold sequencing errors
Measurement kind: polyreactivity (PSR sort gate)

As a guide, the following entries are already answered.
Ask | Which polyreactivity (PSR sort gate) value belongs to QVQLVESGGGLVQAGGSLRLSCAASGRTFERNAMGWYRQAPGKERELVAAITWSGVSTYYADSVKGRFTISRDNAKNTVYLQMNSLKPEDTAVYYCAADWDWRFHRMNYWGQGTQVTVSS ?
Reply | low polyreactivity

Ask | Form field: reported polyreactivity (PSR sort gate) of QVQLVESGGGLVQAGGSLRLSCAASASIFAYNAMGWYRQAPGKERELVAAISYSGASTYYADSVKGRFTISRDYAKNTVYLQMNSLKPEDTAVYYCAATSRRRGTKGYWQVWPRFDYWGQGTQVTVSS
Reply | high polyreactivity

Ask | # query: polyreactivity (PSR sort gate) of entry QVQLVESGGGLVQAGGSLRLSCAASGRIFDVYAMGWYRQAPGKERELVASISWSDGSTYYADSVKGRFTLSRDNAKNTVYLQMNSLKPEDTAVYYCNALTELGGRWDDYWGQGTQVTVSS
Reply | low polyreactivity

Ask | I have this sequence here, QVQLVESGGGFVQAGGSLRLSCAASGSIFYLYAMGWYRQAPGKERELVAAITSIGGSTYADSVKGRFTISRDNAKYTVYLQMNSLKPEDTAVYYCATYVAYHRGYRTYDQWGQGTQVTVSS , and I need its recorded polyreactivity (PSR sort gate).
Reply | low polyreactivity

Ask | Consider the sequence QVQLVESGGGLVQAGGSLRLSCAASGFIFYKYAMGWYRQAPGKERELVAAITRSGGSTFYADSVKGRFTISRDNAKNTVYLQMNSLKPEDTAVYYCAADAIVQVTPRPRRYDYWGQGTQVTVSS and give its measured polyreactivity (PSR sort gate).
Reply | high polyreactivity

New cases:
Ask | Recorded polyreactivity (PSR sort gate) for QVQLVESGGGLVQAGGSLRLSCAASGRIFSVYVMGWYRQAPGKERELVAAITRSGGRTYYADSVKGRFTISRDNAKNTVYLQMNSLKPDDTAVYYCAARVKGYAYNYWGQGTQVTVSS , please?
Reply | high polyreactivity

Ask | Which polyreactivity (PSR sort gate) value belongs to QVQLVESGGGLVQAGGSLRLSCAASGSIFWYYAMGWYRQAPGKERELVASISSSGGSTYYADSVKGRFTISRDNAKNTVYLQMNSLKPEYTAVYYCAKRTNWGYWYNSWGQGTQVTVSS ?
Reply | high polyreactivity

Ask | What measured polyreactivity (PSR sort gate) goes with QVQLVESGGGLVQAGGSLRLSCAASGFTFAFYTMGWYRQAPGKERELVAGITRSGTNTYYADSVKGRFTISRDNAKNTVYLQMNSLKPEDTAVYYCAAAIRPGMDYWGQGTQVTVSS ?
Reply | high polyreactivity

Ask | Given the sequence QVQLVESGGGLVQAGGSLRLSCADSGSIFYRYAMGWYRQAPGKERELGAAISQSGGSTYYADSVKGRFTISRDNAKNTVYLQMNSLKPEDTAVYYCQLIRRGHDYWGQGTQVTVSS , what is its reported polyreactivity (PSR sort gate)?
Reply | high polyreactivity
